# Assay Procedure: soluble fraction after stress (log2 fold change); higher = more stays soluble; pooled small domains, quantitative proteomics;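 note: 20 min heating vs room temperature control held 20 min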
# Assay Context: stress: 75 degC
Lab note: anything with soluble fraction (log2) at or over -0.6 counts as yes (1); the rest go in no (0).

Solved entries:
HMVTTADIILEFYSRNPNATLTQAAQHVARATGTTYSRQAISAQLKRLEVAGLVERNGHVTV yes (1)
HMDKKEFGKRLKNLRIRNKMSQQAMADSLGYTSRSTINKIEEGINEMSYDKIVRLMELYGLSRPDLGLEPI yes (1)
HMGFLTKTQRLEILLHLKDEPYYNVEKLKELIKNRYGIVYQSSQSYYDLLKEAGLSWHQTQA no (0)

Threshold query (soluble fraction (log2) >= -0.6) on HMSSSLDQLTVREREILAQVSRGLSNKAIARELGISHDTVKLHVRHILSKLGFSSRVEAAVFAIEHRIG no (0)

Dear colleague, could you confirm whether HMASVVEQVQVSNDISLFRQQNSPYWQARFKVAGKWYTRTTKRTEQTQAAFRAAELRSEVQTKISQGIPLR has soluble fraction (log2) at or above -0.6? no (0)

Kindly determine if soluble fraction (log2) recorded for HMNLDVPGIIKRAKQALNLKRDSELAEFLGVSRATVTNWAARNSIDFRLLLDKLGNTVDYNWLLLGKGNPK is above or exactly -0.6. no (0)

soluble fraction (log2) >= -0.6 for HMEVSEGEIREKVESVFSSNPRQAYNYKQISKKLNINDKSERQIVWDVLRKLAGSGKIQEVEHGRFRARAE ? yes (1)
